binders and their reported Trimeric HA Binding RLU
- target_or_test_system: recombinant soluble homotrimeric HA of A/California/4/09 (H1N1) (Influenza A virus A/California/04/2009 (H1N1))
- measurement_notes: HA microarray, BCC supernatant
- reported_conditions: remark: other sources report otherwise
Note: unit RLU is implicit; provide only the numeric part.

Which value of Trimeric HA Binding RLU has been reported for TCN-551 (5243_D01) (antibody, V domains shown) VH: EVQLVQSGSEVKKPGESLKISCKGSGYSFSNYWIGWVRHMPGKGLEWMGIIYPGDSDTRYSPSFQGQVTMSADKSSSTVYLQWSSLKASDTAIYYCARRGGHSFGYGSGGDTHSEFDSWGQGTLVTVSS VL: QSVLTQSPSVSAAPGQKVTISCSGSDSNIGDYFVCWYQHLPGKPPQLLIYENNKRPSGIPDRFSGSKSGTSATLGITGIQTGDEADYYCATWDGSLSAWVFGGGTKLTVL in the records?
53400

***
Which value of Trimeric HA Binding RLU has been reported for TCN-538 (3206_O17) (antibody, V domains shown) VH: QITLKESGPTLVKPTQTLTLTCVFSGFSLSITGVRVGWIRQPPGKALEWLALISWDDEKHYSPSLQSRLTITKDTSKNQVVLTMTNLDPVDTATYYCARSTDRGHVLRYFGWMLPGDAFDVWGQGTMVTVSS VL: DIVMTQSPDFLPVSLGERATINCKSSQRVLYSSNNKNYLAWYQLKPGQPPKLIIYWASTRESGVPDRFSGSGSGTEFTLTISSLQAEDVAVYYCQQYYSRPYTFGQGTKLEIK in the records?
13800

Which value of Trimeric HA Binding RLU has been reported for TCN-535 (5246_P19) (antibody, V domains shown) VH: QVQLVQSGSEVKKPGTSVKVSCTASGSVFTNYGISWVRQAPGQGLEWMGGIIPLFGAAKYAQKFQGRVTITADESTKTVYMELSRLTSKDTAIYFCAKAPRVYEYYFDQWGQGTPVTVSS VL: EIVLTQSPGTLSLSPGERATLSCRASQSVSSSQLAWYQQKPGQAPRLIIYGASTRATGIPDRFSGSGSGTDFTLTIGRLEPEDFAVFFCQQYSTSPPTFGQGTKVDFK in the records?
48600
